assay: NCI Yeast Anticancer Drug Screen. Data for the cln2 rad14 strain (AID 165);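 also: 0% = growth equal to vehicle treated cultures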; conditions: S. cerevisiae cln2 rad14 strain, at 5.0 µM (retest, dose inferred, filed as 0.5)
The panel holds about 79,000 compounds, 15% with a hit somewhere; the sample as a whole holds those more often. Active and inactive are the calls of the source. Rule as the data show it: active = growth inhibition above about 70%; inactive = the rest.
A correct response names exactly one class from active, inactive

# MOLECULE, DISCRETE_LABEL
data = [
    ("Cc1ccc(S)c(S)c1", "active"),
    ("Cc1ccc(Oc2ccc(C(=O)C(CN(C)C)CN(C)C)cc2)cc1", "active"),
    ("N#CC12CC3=C(N=C1NC1=C(CCc4ccccc41)C2)c1ccccc1CC3 (stereo unspecified)", "inactive"),
    ("CCCCC(CC)COC(=O)c1cc2ccccc2oc1=O (stereo unspecified)", "inactive"),
    ("CCCCCCCCCCCCCCCC(=O)N1CCOCC1", "inactive"),
]

Attention now turns to another entry.
Could you please tell me the result logged for N#Cc1c2c(c(N=[N+]=[N-])n3c1nc1ccccc13)CCCC2 in this assay?
inactive

----------
assay: NCI Yeast Anticancer Drug Screen. Data for the rad50 strain (AID 155);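 also: 0% = growth of vehicle-only cultures of the same strain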; details: S. cerevisiae rad50 strain growth inhibition; at 50.0 µM (retest, dose inferred, filed as 5.0); active compounds read high
This is part of a sample that, as a whole, favours compounds with a hit. Of some 79,000 tested, about 15% had one in any assay.
The threshold is inclusive: growth inhibition of exactly 60% counts as Satisfied; values below receive Not satisfied.

# COMPOUND, DISCRETE_LABEL
rows = [
    ("NS(=O)(=O)c1ccc(-n2cccc2)cc1", "Not satisfied"),
    ("CN(NC(=O)CC(=O)NN(C)C(=S)c1ccccc1)C(=S)c1ccccc1", "Satisfied"),
    ("COc1ccc(NC(=S)N/N=C/c2cccc(C)n2)cc1", "Satisfied"),
    ("COC12C=CC(CC1)c1c2c(O)c2ncccc2c1O (configuration not stated)", "Satisfied"),
    ("Cc1ccc(Cc2nc(=S)[nH][nH]2)cc1", "Not satisfied"),
]

Given the entry CCNC(=S)N/N=C(/C)c1cccc(/C(C)=N\NC(=S)NCC)n1 , answer whether its growth inhibition meets or surpasses 60%.
Not satisfied

----------
List of growth inhibition values.
assay: NCI Yeast Anticancer Drug Screen. Data for the sgs1 mgt1 strain (AID 161);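 also: 0% = growth of cultures given vehicle only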; conditions: S. cerevisiae sgs1 mgt1 strain, at 5.0 µM (retest, dose inferred, filed as 0.5), active compounds read high
About 79,000 compounds went through this panel and 15% of them were active in at least one assay; those are over-represented in the sample as a whole.
Supply the numeric figure in %, leaving out any unit text.

Below: 5 compounds and their reported growth inhibition.
# COMPOUND, growth inhibition [%]
records = [
    ("Cc1ccc(S(=O)(=O)CC2COC(CS(=O)(=O)c3ccc(C)cc3)CO2)cc1 (stereo unspecified)", 10),
    ("O=C(Nc1nnc(-c2ccccc2)s1)c1cc(=O)c2cc(Cl)ccc2o1", -3),
    ("CCCCCCCCCCCCCCCC[N+](C)(C)CCCCCC(=O)OC", 100),
    ("O=C(CCCN1CCc2[nH]c3cc(F)ccc3c2C1)c1ccc(F)cc1", -7),
    ("O=C(NCCCCCCNC(=O)n1cc(F)c(=O)[nH]c1=O)NC1C(O)OC(CO)C(O)C1O (stereo unspecified)", 83),
]

Can you look up the measured growth inhibition of COc1cccc(=O)cc1 for me?
11

The origin of these recorded values is PubChem BioAssay (NCI).
